assay: Standard protocol for determination of kcat and KM (continuous spectrophotometric assay, Acetyl CoA hydrolysis at 235 nm)
Format: biochemical
measurementSetup: purified protein; about 23° C.; pH 6.8; 0.2 mM acetyl CoA; glyphosate 0.125 to 10 mM
Is Km at least 1000 µM? Then rule met. If not, rule not met.

Check out these entries, answers already filled in.
molecule	assignedLabel
SEQ ID NO: 331: GAT polypeptide (protein, 15_12D8, GAT polypeptide) MIEVKPINAEDTYEIRHRILRPNQPLEACKYETDLLGGTFHLGGYYRGKLVSIASFHQAEHPELEGQKQYQLRGMATLEGYREQKAGSTLIRHAEELLRKKGADLLWCNARTSASGYYKKLGFSEQGKVYDIPPVGPHILMYKKLT	rule met
SEQ ID NO: 401: GAT polypeptide (protein, 6_2H1, GAT polypeptide) MIEVKPINAEDTYEIRHRVLRPNQPLEACMYETDLLGGTFHLGGYYRGKLISIASFHQAEHPELEGQKPYQLRGMATLEGYREQKAGSTLIRHAEELLRKKGADLLWCNARTSASGYYKKLGFSEQGEIYDIPPIGPHILMYKKLT	rule not met
SEQ ID NO: 308: GAT polypeptide (protein, 14_10H9, GAT polypeptide) MIEVKPINAEDTYEIRHRILRPNQPLEACKYETDLLRGAFHLGGYYRGKLVSIASFHQAEHPELEGQKQYQLRGMATLEGYREQKAGSTLIRHAEELLRKKGADLLWCNARTSASGYYKKLGFSEQGEVYDTPPVGPHILMYKKLT	rule met

Enquiry: Identify whether the reported Km of the following molecule is 1000 µM or greater: SEQ ID NO: 380: GAT polypeptide (protein, 4H1, GAT polypeptide) MIEVKPINAEDTYEIRHRILRPNQPLEACMYETDLLGGAFHLGGYYQGKLISIASFHQAVHSELEGQKQYQLRGMATLEGYREQKAGSTLIRHAEELLRKKGADLLWCNARTSVSGYYKKLGFSEQGGVYDIPPIGPHILMYKKLT
Return: rule met

Enquiry: Now give it for SEQ ID NO: 271: GAT polypeptide (protein, 10_17D1, GAT polypeptide) MIEVKPINAEDTYEIRHRILRPNQPLEACKYETDLLGGTFHLGGYYRGKLISIASFHQAEHPELEGQKQYQLRGMATLEGYREQKAGSTLIRHAEELLRKKGADLLWCNARTSASGYYKKLGFSEQGEVYDTPPVGPHILMYKKLT too.
Return: rule met

Enquiry: Same again, this time with SEQ ID NO: 343: GAT polypeptide (protein, 17C12, GAT polypeptide) MIEVKPISAEDTYEIRHRILRPNQPLEACMYETDLLGGAFHLGGYYQGKLISIASFHQAEHSELEGQKQYQLRGMATLEGYREQKAGSTLIRHAEELLRKKGADLLWCNARTSVSGYYEKLGFSEQGEVYDIPPIGPHILMYKKLT
Return: rule met
